# Tested on: NCI-H522 lung
# Assay: NCI tumour cell line growth inhibition, 48 h; in the data active = GI50 below about 0.43 µM; inactive = the rest
Hi there, use one of these labels in your reply, thanks! active, inactive

Cc1cccc(Oc2ccc(Nc3ncnc4ccc(NC(=O)CN(C)C)cc34)cc2Cl)c1
active
COc1ccc(Cn2c(Br)c3c(c2-c2cc(OC)c(OC)c(OC)c2)CCc2sc(N)nc2-3)cc1
active
O=C1C[C@@H]2OCC=C3C[N+]4([O-])CC[C@]56c7ccccc7N1[C@H]5[C@H]2[C@H]3C[C@@H]64 (stereo partly drawn)
inactive

Proceed to the following item.
Task: Would you mind telling me which call this test gave COc1cc(/C=C/C(=O)c2nc3cc(F)ccc3nc2C)cc(OC)c1OC ?
Output: inactive
